IC50: recorded values
- subject of test: NS3 (West Nile virus)
- Sequence (K4FQI5 whole entry): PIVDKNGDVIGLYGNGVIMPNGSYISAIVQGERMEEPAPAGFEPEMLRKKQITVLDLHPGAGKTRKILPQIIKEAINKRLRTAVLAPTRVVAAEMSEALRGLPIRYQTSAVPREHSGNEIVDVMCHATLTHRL
- protocol details: Functional biochemical assay to identify treatments for viral infectious disease that targets West Nile NS2B-NS3 protease. Utilizing a direct enzyme activity measurement method, reading the fluorescence intensity is used to characterize the relative potency of inhibitors as IC50.
measured endpoint: IC50 (µM)

[[record]]
item_smiles = "C=CC[C@H]1NCc2cc(NC(=O)c3cc(Cl)cc4[nH]ncc34)ccc21"
endpoint_unit = "µM"
comparison_symbol = "="
observed_measurement = 14.1

[[record]]
item_smiles = "Nc1noc2cccc(C(=O)Nc3ccc4c(c3)CNC4)c12"
endpoint_unit = "µM"
comparison_symbol = "="
observed_measurement = 76.8

[[record]]
item_smiles = "Clc1cc([C@@H]2C[C@H]2c2cccc(C3CCNCC3)c2)c2cn[nH]c2c1"
endpoint_unit = "µM"
comparison_symbol = "="
observed_measurement = 10.9

[[record]]
item_smiles = "COc1ccc(-c2nc3c(C(=O)Nc4ccc5c(c4)CNC5)cc(F)cc3[nH]2)nn1"
endpoint_unit = "µM"
comparison_symbol = "="
observed_measurement = 3.68

[[record]]
item_smiles = "CCOC(=O)[C@H](Nc1ccc2c(c1)CNC2)c1cc(Cl)cc(C2CC2)c1"
endpoint_unit = "µM"
comparison_symbol = "="
observed_measurement = 0.845

[[record]]
item_smiles = "Cn1cc2c(C(=O)Nc3ccc4c(c3)CNC4)cc(F)cc2n1"
endpoint_unit = "µM"
comparison_symbol = "="
observed_measurement = 7.38

[[record]]
item_smiles = "COCc1cc(Cl)cc([C@H](Nc2ccc3c(c2)CNC3)C(=O)NCC(F)F)c1"
endpoint_unit = "µM"
comparison_symbol = "="
observed_measurement = 0.154

[[record]]
item_smiles = "O=C(Nc1ccc2c(c1)CNC2)c1cc(Cl)cc2nn(C3CCC3)cc12"
endpoint_unit = "µM"
comparison_symbol = "="
observed_measurement = 14.7

[[record]]
item_smiles = "N=C(N)Nc1ccc(OC(=O)Nc2ccccc2)cc1"
endpoint_unit = "µM"
comparison_symbol = ">"
observed_measurement = 100

[[record]]
item_smiles = "Cc1cc(-c2cc(F)cc(C(=O)Nc3ccc4c(c3)CNC4)c2)[nH]n1"
endpoint_unit = "µM"
comparison_symbol = "="
observed_measurement = 3.74

[[record]]
item_smiles = "O=C(Nc1ccc2c(c1)CNCCC2)c1cc(Cl)cc2[nH]ncc12"
endpoint_unit = "µM"
comparison_symbol = "="
observed_measurement = 3.25

[[record]]
item_smiles = "CNC(=O)c1cc(Cl)c(F)cc1NS(=O)(=O)c1ccc(Oc2ccccc2Cl)cc1"
endpoint_unit = "µM"
comparison_symbol = "="
observed_measurement = 30.6

[[record]]
item_smiles = "O=C(Nc1cc2c(c(C3=CCOCC3)c1)CNC2)c1cc(F)cc2[nH]ncc12"
endpoint_unit = "µM"
comparison_symbol = "="
observed_measurement = 0.627

[[record]]
item_smiles = "O=C1c2c(O)ccc([N+](=O)[O-])c2C(=O)c2c([N+](=O)[O-])ccc(O)c21"
endpoint_unit = "µM"
comparison_symbol = ">"
observed_measurement = 100

[[record]]
item_smiles = "NCc1cccc(NC(=O)c2cc(Cl)cc3[nH]ncc23)c1"
endpoint_unit = "µM"
comparison_symbol = "="
observed_measurement = 35.8

[[record]]
item_smiles = "N=C(N)NCCc1cccc(B(O)O)c1"
endpoint_unit = "µM"
comparison_symbol = ">"
observed_measurement = 100

[[record]]
item_smiles = "C=CC[C@H](Nc1cc(Cl)cc(NC(=O)OCc2ccccc2)c1)c1cccc(-c2nn[nH]n2)c1"
endpoint_unit = "µM"
comparison_symbol = "="
observed_measurement = 14.4

[[record]]
item_smiles = "O=C(Nc1ccc2c(c1)CNC2)c1cc(F)cc2[nH]c(-c3cnccc3O)nc12"
endpoint_unit = "µM"
comparison_symbol = "="
observed_measurement = 9.93

[[record]]
item_smiles = "O=C(Nc1ccc2c(c1)CNC2)c1ccc2c(C3=CCNCC3)csc2c1"
endpoint_unit = "µM"
comparison_symbol = "="
observed_measurement = 7.5

[[record]]
item_smiles = "COc1cc(Cl)cc(C(=O)Nc2ccc3c(c2)CNC3)c1"
endpoint_unit = "µM"
comparison_symbol = "="
observed_measurement = 40.7

[[record]]
item_smiles = "CC(C)(C)c1nc2c(C(=O)Nc3ccc4c(c3)CNC4)cc(Br)cc2[nH]1"
endpoint_unit = "µM"
comparison_symbol = ">"
observed_measurement = 99.5

